# TARGET OF ASSAY: CSBP/p38 (Homo sapiens)
# Sequence (Q16539 whole entry): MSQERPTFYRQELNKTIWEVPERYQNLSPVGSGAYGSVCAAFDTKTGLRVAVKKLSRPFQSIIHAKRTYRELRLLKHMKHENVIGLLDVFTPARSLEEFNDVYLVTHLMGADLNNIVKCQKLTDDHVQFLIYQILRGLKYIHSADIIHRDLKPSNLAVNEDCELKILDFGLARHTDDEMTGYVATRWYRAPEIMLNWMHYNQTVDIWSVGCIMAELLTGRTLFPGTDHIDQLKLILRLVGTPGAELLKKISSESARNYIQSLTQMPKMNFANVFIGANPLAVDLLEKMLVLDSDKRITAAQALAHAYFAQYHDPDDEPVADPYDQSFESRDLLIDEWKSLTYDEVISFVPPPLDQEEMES
# EXPERIMENT: CSBP/p38 Kinase Assay (32P transfer from ATP to EGFR-derived T669 peptide)
# MEASUREMENT CONDITIONS: yeast-expressed, activated and purified p38, 0.17 mM ATP, 25 min at 37° C., read-out: IC50, positive inhibitory activity in this binding assay
pIC50: −log10 of the molar value.
EXPERIMENTAL READOUT: pIC50

>  <SMILES DATA>
CSc1nc(Oc2ccccc2)c2ccc(=O)n(-c3ccccc3Cl)c2n1

>  <TARGET OF ASSAY>
CSBP/p38 (Homo sapiens)

>  <RECORDED RESULT>
> 5.00

$$$$
